Tested on: OVCAR-5 ovarian
method-summary: NCI-60 one-dose screen, 48 h (100 = growth as untreated, 0 = no growth, -100 = all killed)
assay-setup: 10 µM unless noted
Compounds without any hit were thinned out: in the full panel of roughly 83,000, 20% have a hit.

compound	growth / %
c1csc(-c2ccc(CNc3c4ccccc4nc4ccccc34)cc2)c1	67.1
Nc1n[nH]c2ccc([C@H]3[C@@H]4C5CCC(C5)[C@@H]4c4c(ccc5[nH]ncc45)N3S(=O)(=O)C3CC3)cc12 (some centres not stated)	23.4
O=C(O)CCCN1C(=O)/C(=C/c2cn(-c3ccccc3)nc2-c2ccc([N+](=O)[O-])cc2)SC1=S	94.3
O=C(CN1C(=O)S/C(=C\c2ccccc2)C1=O)Nc1ncc(Cc2ccccc2Cl)s1	103
COc1ccc(Nc2nnc(-c3ccc(OC)c(OC)c3)o2)cc1	100
CN(C)S(=O)(=O)c1cccc(C(=O)Nc2nc(-c3ccc(F)c(F)c3)cs2)c1	86.1
COC1/C=C/OC2(C)Oc3c(C)c(O)c4c(O)c(c(/C=N/Nc5ccc([N+](=O)[O-])cc5[N+](=O)[O-])c(O)c4c3C2=O)NC(=O)C(C)=C/C=C/C(C)C(O)C(C)C(O)C(C)C(OC(C)=O)C1C (configuration not stated)	48.3
O=C(c1ccncc1)N1N=C(c2ccc(Cl)cc2)C[C@H]1c1cn(-c2ccccc2)nc1-c1ccccc1	105
O=C(Nc1nc2cc(C(=O)N3CCN(C(c4ccccc4)c4ccccc4)CC3)ccc2o1)c1ccc(NC2CCCCC2)c([N+](=O)[O-])c1	72.5
Cc1[nH]c(C(=O)Nc2ccccc2OC2CCNCC2)c(Cl)c1Cl	68.7
COC(=O)CC[C@H](C)[C@H]1CC[C@H]2[C@@H]3CC[C@@H]4CC5(CC[C@]4(C)[C@H]3CC(=O)[C@]12C)Nc1ccccc1NC5=NC(C)(C)C (some centres not stated)	89.1
Nc1c(C(=O)Nc2ccccc2F)sc2nc3c(cc12)CCCC3	74.7
CCN(CC)c1ccc(\C=N/N=C(N)/C(N)=N\N=C/c2ccc(N(CC)CC)cc2)cc1	126
COc1ccc(-c2nn(-c3cccc(Cl)c3)cc2-c2cc(-c3ccc(Br)cc3)nc(N)n2)cc1	97.2
CN1CCN(C(=O)c2ccc(NC(=O)c3cc4c(nn3)NCCN4Cc3cc(Cl)ccc3Cl)cc2)CC1	56.4
COc1ccc(OC)c(-c2nc(SCC(=O)c3ccc(C#N)cc3)[nH]c(=O)c2C#N)c1	89.5
O=C(CSc1nnc(-c2cnccn2)n1-c1ccccc1)c1ccc(Cl)cc1	96.9
